# tgt: FXa (Homo sapiens, UniProt P00742)
# Sequence (P00742 235-488 limits assumed): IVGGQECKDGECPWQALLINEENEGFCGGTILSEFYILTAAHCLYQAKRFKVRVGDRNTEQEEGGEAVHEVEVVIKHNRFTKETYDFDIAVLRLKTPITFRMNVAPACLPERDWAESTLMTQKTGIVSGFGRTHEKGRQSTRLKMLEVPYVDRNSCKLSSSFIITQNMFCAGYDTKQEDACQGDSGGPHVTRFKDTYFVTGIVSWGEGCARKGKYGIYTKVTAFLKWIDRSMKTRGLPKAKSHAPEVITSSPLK
# Sequence (P00742 41-179 partner limits assumed): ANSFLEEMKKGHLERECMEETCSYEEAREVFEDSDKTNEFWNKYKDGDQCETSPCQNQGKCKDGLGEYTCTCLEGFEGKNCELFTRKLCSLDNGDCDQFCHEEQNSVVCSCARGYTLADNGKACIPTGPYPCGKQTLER
# experimental-details: Inhibition of FXa, chromogenic substrate hydrolysis assay
# test-context: FXa, pH 7.4, 37 °C
experimental-readout: IC50 (µM)

{"given-smiles": "COC(=O)c1nc(N)n(C(=O)c2cc(OC)c(OC)c(OC)c2)n1", "numeric-value": 47.6}

====

Listed here are compounds together with their documented pIC50.
# tgt: human FXIIa (Homo sapiens)
# Sequence (P00748 373-615 limits assumed): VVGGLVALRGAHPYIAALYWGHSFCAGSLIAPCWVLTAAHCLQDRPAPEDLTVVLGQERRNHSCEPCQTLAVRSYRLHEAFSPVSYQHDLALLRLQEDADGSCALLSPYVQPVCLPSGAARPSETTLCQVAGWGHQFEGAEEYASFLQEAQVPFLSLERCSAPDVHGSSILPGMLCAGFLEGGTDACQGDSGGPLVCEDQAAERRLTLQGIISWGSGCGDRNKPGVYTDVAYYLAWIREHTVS
# Sequence (P00748 20-372 partner limits assumed): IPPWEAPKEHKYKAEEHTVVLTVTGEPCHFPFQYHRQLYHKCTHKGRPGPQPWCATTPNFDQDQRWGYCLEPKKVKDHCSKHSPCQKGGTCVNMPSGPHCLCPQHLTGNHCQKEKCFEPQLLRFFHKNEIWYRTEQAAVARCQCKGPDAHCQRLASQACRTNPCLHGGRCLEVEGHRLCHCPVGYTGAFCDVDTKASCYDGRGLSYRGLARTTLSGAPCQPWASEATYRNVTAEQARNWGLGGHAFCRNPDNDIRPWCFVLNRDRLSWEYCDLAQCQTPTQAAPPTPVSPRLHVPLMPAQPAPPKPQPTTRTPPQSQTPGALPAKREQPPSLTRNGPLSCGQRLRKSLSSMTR
# experimental-details: Direct inhibition of human FXIIa, chromogenic substrate hydrolysis assay
# test-context: human FXIIa, Tris–HCl buffer pH 7.4, 37 °C
pIC50: −log10 of the molar value.

{"compound": "COC(=O)c1nc(N)n(C(=O)c2ccc(C(C)(C)C)cc2)n1 [RA, reference compound]", "tgt": "human FXIIa (Homo sapiens)", "pIC50": 6.96}
{"compound": "COC(=O)c1nc(N)n(C(=O)c2ccc(F)cc2)n1", "tgt": "human FXIIa (Homo sapiens)", "pIC50": 7.49}
{"compound": "CC(C)(C)c1ccc(C(=O)n2ncnc2N)cc1", "tgt": "human FXIIa (Homo sapiens)", "pIC50": 5.07}
